Provide the recorded ELISA signal at 6.25 nM Fab for the entries that follow.
Molecular target: T1, Recombinant Human DLL4 (delta-like protein 4) (human, UniProt Q9NR61 27-524)
T1 construct: also called rHuman DLL4
Test: ELISA, plate-coated DLL4, Fab 6.25 nM
# respond with the number and nothing more

q: Look at this binder and give its reported ELISA signal at 6.25 nM Fab. Fab VH1-46_IGHD6-6*01_IGHJ1*01 S102A/S103P/S104F/H111F (APFF) & L6_IGKJ1*01 S28N/S30D/S31H A55S (Fab, V domains shown, Fab made in E. coli: VH in plasmid A (CH1, His6 and Flag tags), VL in plasmid C (kappa CL); also called H:APFF & L:NDH A55S; APFF / NDH/A55S) VH: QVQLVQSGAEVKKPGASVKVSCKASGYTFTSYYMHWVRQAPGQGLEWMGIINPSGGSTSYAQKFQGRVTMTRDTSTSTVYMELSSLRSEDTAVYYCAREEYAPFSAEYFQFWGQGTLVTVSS VL: EIVLTQSPATLSLSPGERATLSCRASQNVDHYLAWYQQKPGQAPRLLIYDASNRSTGIPARFSGSGSGTDFTLTISSLEPEDFAVYYCQQRSNWPPWTFGQGTKVEIKR
a: 0.154

q: And the next one, Fab VH1-46_IGHD6-6*01_IGHJ1*01 S102A/S103P/S104F/H111F (APFF) & L6_IGKJ1*01 S28N/S30D/S31H S52T (Fab, V domains shown, Fab made in E. coli: VH in plasmid A (CH1, His6 and Flag tags), VL in plasmid C (kappa CL); also called H:APFF & L:NDH S52T; APFF / NDH/S52T) VH: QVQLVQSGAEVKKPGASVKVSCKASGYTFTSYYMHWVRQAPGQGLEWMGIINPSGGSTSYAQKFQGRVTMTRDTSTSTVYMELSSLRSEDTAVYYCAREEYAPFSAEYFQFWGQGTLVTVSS VL: EIVLTQSPATLSLSPGERATLSCRASQNVDHYLAWYQQKPGQAPRLLIYDATNRATGIPARFSGSGSGTDFTLTISSLEPEDFAVYYCQQRSNWPPWTFGQGTKVEIKR ?
a: 0.13

q: Fab VH1-46_IGHD6-6*01_IGHJ1*01 S102A/S103P/S104F/H111F (APFF) & L6_IGKJ1*01 S28N/S30D/S31H S52L (Fab, V domains shown, Fab made in E. coli: VH in plasmid A (CH1, His6 and Flag tags), VL in plasmid C (kappa CL); also called H:APFF & L:NDH S52L; APFF / NDH/S52L) VH: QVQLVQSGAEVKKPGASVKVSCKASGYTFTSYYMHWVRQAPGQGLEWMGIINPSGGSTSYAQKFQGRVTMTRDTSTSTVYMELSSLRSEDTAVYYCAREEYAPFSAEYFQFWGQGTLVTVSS VL: EIVLTQSPATLSLSPGERATLSCRASQNVDHYLAWYQQKPGQAPRLLIYDALNRATGIPARFSGSGSGTDFTLTISSLEPEDFAVYYCQQRSNWPPWTFGQGTKVEIKR , same question.
a: 0.142

q: What about Fab VH1-46_IGHD6-6*01_IGHJ1*01 S102A/S103P/S104F/H111F (APFF) & L6_IGKJ1*01 S28N/S30D/S31H (NDH) (Fab, V domains shown, Fab made in E. coli: VH in plasmid A (CH1, His6 and Flag tags), VL in plasmid C (kappa CL); also called H:APFF & L:NDH; APFF / NDH) VH: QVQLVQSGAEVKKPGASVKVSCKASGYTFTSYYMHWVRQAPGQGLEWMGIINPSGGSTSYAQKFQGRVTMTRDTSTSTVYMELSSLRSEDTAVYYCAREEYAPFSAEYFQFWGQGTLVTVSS VL: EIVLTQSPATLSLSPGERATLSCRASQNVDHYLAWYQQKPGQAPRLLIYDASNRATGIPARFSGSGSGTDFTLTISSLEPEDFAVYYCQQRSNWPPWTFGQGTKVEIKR ?
a: 0.125

q: Same thing, different binder: Fab VH1-46_IGHD6-6*01_IGHJ1*01 S102A/S103P/S104F/H111F (APFF) & L6_IGKJ1*01 S28N/S30D/S31H A55G (Fab, V domains shown, Fab made in E. coli: VH in plasmid A (CH1, His6 and Flag tags), VL in plasmid C (kappa CL); also called H:APFF & L:NDH A55G; APFF / NDH/A55G) VH: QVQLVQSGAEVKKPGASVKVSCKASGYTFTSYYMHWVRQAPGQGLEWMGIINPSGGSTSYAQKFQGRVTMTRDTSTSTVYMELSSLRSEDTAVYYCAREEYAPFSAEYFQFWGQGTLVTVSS VL: EIVLTQSPATLSLSPGERATLSCRASQNVDHYLAWYQQKPGQAPRLLIYDASNRGTGIPARFSGSGSGTDFTLTISSLEPEDFAVYYCQQRSNWPPWTFGQGTKVEIKR
a: 0.125

q: Next binder up: Fab VH1-46_IGHD6-6*01_IGHJ1*01 S102A/S103P/S104F/H111F (APFF) & L6_IGKJ1*01 S28N/S30D/S31H N53H (Fab, V domains shown, Fab made in E. coli: VH in plasmid A (CH1, His6 and Flag tags), VL in plasmid C (kappa CL); also called H:APFF & L:NDH N53H; APFF / NDH/N53H) VH: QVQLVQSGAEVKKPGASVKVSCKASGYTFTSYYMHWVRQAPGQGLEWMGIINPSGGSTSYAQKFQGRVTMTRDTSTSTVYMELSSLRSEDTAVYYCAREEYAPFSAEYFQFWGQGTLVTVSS VL: EIVLTQSPATLSLSPGERATLSCRASQNVDHYLAWYQQKPGQAPRLLIYDASHRATGIPARFSGSGSGTDFTLTISSLEPEDFAVYYCQQRSNWPPWTFGQGTKVEIKR
a: 0.109
